- TARGET UNDER TEST: T1, Recombinant human CD4 (R&D Systems, Cat. 10327-CD) (human, UniProt P01730 26-390, limits assumed)
- T1 construct: Bought soluble recombinant protein used as analyte at 100 nM; also called huCD4
- METHOD NOTES: BLI (Octet Red384), non-clonal supernatant on AMC sensor, 100 nM human CD4
# reported Response; entries follow
Respond using a number only.

>>> observed_result("75110_05A11A (antibody, V domains shown, Non-clonal AlivaMab Mouse Kappa hybridoma supernatant, captured by anti-mouse IgG Fc (human V regions, mouse Fc)) VH: EVQLVESGGGLVKPGGSLTLSCAASGFTFSNTWMSWVRQAPGKGLEWVGRIKSKIDGGTTDYAAPVKGRFTISRDDSKNTLYLQMNSLKTEDTAVYYCTTSGTYSSGWGLFDYWGQGTLVTVSS VL: DIQMTQSPSSLSASVGDRVTITCQASQDISNYLNWYQQKPGKAPKLLIYDTSNLEAGVPSRFSGSGSGTHFTLTISSLQPEDIATYYCQQYDNLPFTFGGGTRVEIK")
0.15
>>> observed_result("75110_06E14A (antibody, V domains shown, Non-clonal AlivaMab Mouse Kappa hybridoma supernatant, captured by anti-mouse IgG Fc (human V regions, mouse Fc)) VH: QVQLQESGPGLVKPSETLSLTCTVSGGSISNYFWSWIRQPAGKGLEWIGRIYSSGNTNYNPSLKSRVTMSVDTSKNQFSLKLSSVTAADTAVYYCARDREDYYYYGMDVWGQGTTVTVSS VL: DIQMTQSPSSLSASVGDRVTITCQASQDISNYLNWYQQKPGKAPKLLIYGASILETGVPSRFTGSGSGTDFTFTISSLQPEDIATYYCQQYDSLPITFGQGTRLEIK")
0.12

# input for lookup
(Q) I have this binder here, 75110_08A13A (antibody, V domains shown, Non-clonal AlivaMab Mouse Kappa hybridoma supernatant, captured by anti-mouse IgG Fc (human V regions, mouse Fc)) VH: EVQLVESGGGLVQPGGSLRLSCAASGFIFSSYWMSWVRQAPGKGLEWVANIKQDGSEKYYMDSVKGRFTISRDNAKNSLYLQMNSLRAEDTAVYYCARDNSYYYYGMDVWGQGTTVTVSS VL: AIQMTQSPSSLSASVGDRVTITCRASQGIRDDLGWYQQKPGKAPKLLIFAASSLQSGVPSSFSGSGSGTDFTLTISSLQPEDFATYYCLHHYNYPYTFGQGTKLEIK , and I need its recorded Response.
(A) 0.35
